Assay: qHTS assay to identify small molecule antagonists of the retinoid acid receptor (RAR) signaling pathway - cell viability counter screen (AID 1159551); also: nearly all actives have a fitted effect of over 35% in size
Settings: C3RL4 cells viability, ATP luminescence (CellTiter-Glo), 6 h; series mostly up to 92.4 µM
Experimental: U.S. Tox21 Program National Center for Advancing Translational Sciences [NCATS] NIH Chemical Genomics Center [NCGC] U.S. Environmental Protection Agency [EPA] National Institutes of Environmental Health Sciences [NIEHS] National Toxicology Program [NTP] U.S. Food and Drug Administration [FDA] […] Also cytotoxicity was assessed by determining the viability of cells based on the quantitation of ATP. […]
Records with an inconclusive call do not appear. Calls of active or inactive are those of the source. Calls follow the shape of the dose curve; as a rule, active = well fitted cell-killing curve with a large enough effect in the repeat runs; inconclusive = weak or mixed curves, or effect the other way; inactive = flat fitted curve, though single readings scatter.

{"columns": ["COMPOUND", "activity change, negative = cytotoxicity"],
 "data": [
  ["CC(=O)c1ccc(O)c(C(N)=O)c1", "inactive"],
  ["CCc1ncc(C)[nH]1", "inactive"],
  ["CC1(C)C(=O)C(C)(C)C1=O", "inactive"],
  ["CCCC(=O)C(CC)Sc1ccoc1C (stereo not drawn)", "inactive"],
  ["Cc1cc(O)c(Cl)cc1C", "inactive"],
  ["CN(C)CCc1c[nH]c2ccc(CS(=O)(=O)N3CCCC3)cc12", "inactive"],
  ["CC(C)C(=O)Nc1cccc(C2CN3CCSC3=N2)c1 (stereo not drawn)", "inactive"],
  ["O=C1CC2(CCCC2)CC(=O)N1CCNCC1COc2ccccc2O1 (stereo not drawn)", "inactive"],
  ["C[C@@H]1CCC[C@H](C)N1CCCC(O)(c1ccccc1)c1ccccn1 (stereo partly drawn)", "inactive"],
  ["COCc1nnc(-c2ccc[n+]([O-])c2)n1-c1c(Cl)c(Cl)cc2[nH]c(=O)c(=O)[nH]c12", "inactive"],
  ["CC(=O)SCC(CC(=O)c1ccc(C)cc1)C(=O)O (stereo not drawn)", "inactive"],
  ["CC(C)c1cc(C(C)C)cc(C(C)C)c1", "inactive"],
  ["CCCCCCCCOCCC#N", "inactive"]
]}
